target: recombinant cynomolgus BCMA Fc(kih) (cynomolgus, UniProt A0A2K5UD97 4-51); test: ratio of SPR KD values (KD cynomolgus BCMA / KD human BCMA), reference human BCMA Fc(kih)
Sequence (A0A2K5UD97 entry or part of it): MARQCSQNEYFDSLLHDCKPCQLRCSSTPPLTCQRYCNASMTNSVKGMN
TEST READOUT: Affinity cyno/hu gap (fold)
Answers are plain numbers, in fold.

Some binders with recorded Affinity cyno/hu gap:
Enquiry: Affinity cyno/hu gap for Mab 21 IgG (antibody, V domains shown, also called antibody 21) VH: EVQLLESGGGLVQPGGSLRLSCAASGFTFSDNAMGWVRQAPGKGLEWVSAISGPGSSTYYADSVKGRFTISRDNSKNTLYLQMNSLRAEDTAVYYCAKVLGWFDYWGQGTLVTVSS VL: EIVLTQSPGTLSLSPGERATLSCRASQSVSEYYLAWYQQKPGQAPRLLIEHASTRATGIPDRFSGSGSGTDFTLTISRLEPEDFAVYYCQQYGYPPDFTFGQGTKVEIK ?
Return: 9.3

Enquiry: Affinity cyno/hu gap lookup needed for Mab 22 IgG (antibody, V domains shown, also called antibody 22; clone 22) VH: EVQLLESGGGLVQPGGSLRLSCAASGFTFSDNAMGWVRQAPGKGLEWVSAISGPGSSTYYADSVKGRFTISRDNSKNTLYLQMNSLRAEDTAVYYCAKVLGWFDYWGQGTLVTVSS VL: EIVLTQSPGTLSLSPGERATLSCRASQSVSSYYLAWYQQKPGQAPRLLISGAGSRATGIPDRFSGSGSGTDFTLTISRLEPEDFAVYYCQQYGYPPDFTFGQGTKVEIK , thanks.
Return: 15.4

Others:
Enquiry: Which value of Affinity cyno/hu gap has been reported for Mab 27 IgG (antibody, V domains shown) VH: EVQLLESGGGLVQPGGSLRLSCAASGFTFSSAPMGWVRQAPGKGLEWVSAISYIGHTYYADSVKGRFTISRDNSKNTLYLQMNSLRAEDTAVYYCAKVLGWFDYWGQGTLVTVSS VL: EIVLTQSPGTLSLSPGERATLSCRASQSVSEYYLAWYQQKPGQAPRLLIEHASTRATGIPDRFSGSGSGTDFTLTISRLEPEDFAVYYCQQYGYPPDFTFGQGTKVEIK in the records?
Return: 12.7
